The origin of these recorded values is ChEMBL document CHEMBL3046559.

- Test system: Avena sterilis
- Assay explanation: Herbicidal activity against Avena sterilis accession P20 assessed as weed survival at 1 times field recommended herbicide dose
- Type: functional
Quantity name: Survival (%)

- Compound: "COC(=O)C(C)Oc1ccc(Oc2ccc(Cl)cc2Cl)cc1 (stereo unspecified) [DICLOFOP-METHYL]"
  Experimental result: 100
- Compound: "CCOC(=O)[C@@H](C)Oc1ccc(Oc2nc3ccc(Cl)cc3o2)cc1 [FENOXAPROP-P-ETHYL]"
  Experimental result: 97
- Compound: "C#CCOC(=O)[C@@H](C)Oc1ccc(Oc2ncc(Cl)cc2F)cc1 [CLODINAFOP PROPARGYL]"
  Experimental result: 93
- Compound: "CCc1cc(C)cc(CC)c1-c1c(OC(=O)C(C)(C)C)n2n(c1=O)CCOCC2 [PINOXADEN]"
  Experimental result: 63
- Compound: "CCO/N=C(\\CC)C1=C(O)CC(c2c(C)cc(C)cc2C)CC1=O (stereo unspecified) [TRALKOXYDIM]"
  Experimental result: 97
- Compound: "COCc1cnc(C2=NC(C)(C(C)C)C(=O)N2)c(C(=O)O)c1 (stereo unspecified) [IMAZAMOX]"
  Experimental result: 0
